Test Description: TLR3 IRF3 reporter activation blockers – cell-based, poly I:C stimulus, luciferase, 10K MLSCN set, primary screen (AID 602277)
Assay Setup: HEK293-TLR3 RL24 IRF3 luciferase reporter, at 10 µM, stronger effect = higher value
Below, each of the molecules is paired with its reported inhibition value.

[
  {
    "Molecule": "O=C(CCCn1ncn2c(cc3occc32)c1=O)N1CCc2ccccc2C1",
    "inhibition / %": 8.89
  },
  {
    "Molecule": "CCn1nccc1C(=O)Nc1nccs1",
    "inhibition / %": 9.69
  },
  {
    "Molecule": "CCN1C(=O)/C(=C2\\C=Cc3ccccc3N2CC)OC1=S",
    "inhibition / %": -8.93
  },
  {
    "Molecule": "Cc1ccc(S(=O)(=O)NCC(c2cccnc2)N(C)C)cc1 (stereo unspecified)",
    "inhibition / %": 15.6
  },
  {
    "Molecule": "COc1ccc(C2C(C(C)=O)=C(C)N=c3s/c(=C/c4ccc5c(c4)OCO5)c(=O)n32)cc1 (stereo unspecified)",
    "inhibition / %": 23.9
  },
  {
    "Molecule": "O=C(CCCC(=O)N(CC(=O)NC1CCCCC1)Cc1ccc2c(c1)OCO2)Nc1ccccn1",
    "inhibition / %": 25.3
  }
]

* * *

Test Description: blockers of RIG-like receptor reporter activation – cell-based, Sendai virus stimulus, luciferase, 10K MLSCN set, TLR/RLR signaling modifier project, primary screen (AID 602276);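 also: firefly luciferase from ISG56 promoter only with Renilla not read in this screen; 0% = Sendai virus plus DMSO and 100% = medium plus DMSO without virus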
Assay Setup: HEK293 RL24 IRF3 luciferase reporter, at 10 µM, stronger effect = higher value
Below, each of the molecules is paired with its reported inhibition value.

[
  {
    "Molecule": "Clc1ccc(Cl)c(-c2nn3c(COc4ccccc4)nnc3s2)c1",
    "inhibition (%)": 23.3
  },
  {
    "Molecule": "COC(=O)CCC(=O)Nc1ccc(OC)cc1",
    "inhibition (%)": 8.73
  },
  {
    "Molecule": "CN(C(=O)c1ccc(S(=O)(=O)NC2CCCC2)cc1)C1CCCCC1",
    "inhibition (%)": -13.3
  },
  {
    "Molecule": "Nc1nnc(SCC(=O)N2CCN(c3ccccc3)CC2)n1-c1ccccc1",
    "inhibition (%)": 10.7
  },
  {
    "Molecule": "CC(=O)Nc1ccccc1OCC(=O)c1cc(C)n(Cc2cccs2)c1C",
    "inhibition (%)": 49.5
  },
  {
    "Molecule": "CC(C)CN1C(=O)c2ccc(C(=O)Nc3nccs3)cc2C1=O",
    "inhibition (%)": 13.3
  },
  {
    "Molecule": "COC(=O)c1ccc(CSc2nc3c(cnn3-c3ccc(C)c(C)c3)c(=O)[nH]2)o1",
    "inhibition (%)": 8.02
  },
  {
    "Molecule": "CCOc1ccc(NC(=O)CCN2CCN(c3ccccc3)CC2)cc1",
    "inhibition (%)": 20.2
  },
  {
    "Molecule": "Cn1c(=O)oc2cc(S(=O)(=O)N3CCCC(C(=O)NCC4COc5ccccc5O4)C3)ccc21 (configuration not stated)",
    "inhibition (%)": -12.4
  },
  {
    "Molecule": "COc1ccc(S(=O)(=O)NCc2ccc3c(c2)OCO3)cc1C(=O)O",
    "inhibition (%)": 9.22
  },
  {
    "Molecule": "CCC(C)NC(=O)CS(=O)(=O)Cc1nc(-c2cccc(OC)c2)oc1C (configuration not stated)",
    "inhibition (%)": 9.35
  },
  {
    "Molecule": "COCCNC(=O)CSc1nc(-c2ccc(OC)c(OC)c2)cc(C(F)(F)F)n1",
    "inhibition (%)": 17.7
  },
  {
    "Molecule": "Cc1sc2nc(SCc3nc4ccccc4[nH]3)n(Cc3ccco3)c(=O)c2c1C",
    "inhibition (%)": 0.73
  },
  {
    "Molecule": "COc1ccc2cc(CN(CCO)C(=O)c3ccc(Br)cc3)c(=O)[nH]c2c1",
    "inhibition (%)": 11.6
  },
  {
    "Molecule": "CCCN1CCN(CCCNC(=O)Cn2nc(-c3ccc(Cl)cc3)ccc2=O)CC1",
    "inhibition (%)": 9.94
  },
  {
    "Molecule": "Cc1n[nH]c(C)c1S(=O)(=O)N1CCCCCC1",
    "inhibition (%)": 1.38
  },
  {
    "Molecule": "CCOc1nc(NCCC2=CCCCC2)nc(N2CCOCC2)n1",
    "inhibition (%)": 10.2
  },
  {
    "Molecule": "O=C(Nc1ccncc1)c1cc2ccccc2o1",
    "inhibition (%)": -36.5
  },
  {
    "Molecule": "COC(=O)Cn1c(CN2CCOCC2)nc2c1c(=O)n(C)c(=O)n2C",
    "inhibition (%)": 6.17
  },
  {
    "Molecule": "O=C(Nc1cc(C(=O)N2CCCC2)ccc1N1CCCC1)c1ccccc1F",
    "inhibition (%)": -1.26
  },
  {
    "Molecule": "CCCn1c(SCC(=O)NCc2ccco2)nc2c1c(=O)n(C)c(=O)n2C",
    "inhibition (%)": 16.6
  },
  {
    "Molecule": "CCOC(=O)C1=C(Cn2cnc3ccccc32)NC(=O)NC1c1cc(C)ccc1C (configuration not stated)",
    "inhibition (%)": 27.2
  }
]
